Values were extracted from patent US7084136B2.

Molecular target: PGD2 receptor (Homo sapiens)
Construct: A suspension adjusted to contain the platelets at a final concentration of 5×10^8/ml was warmed at 37° C; endogenous in cells; host or cells: washed human platelets from a healthy volunteer
Sequence (Q13258 whole entry): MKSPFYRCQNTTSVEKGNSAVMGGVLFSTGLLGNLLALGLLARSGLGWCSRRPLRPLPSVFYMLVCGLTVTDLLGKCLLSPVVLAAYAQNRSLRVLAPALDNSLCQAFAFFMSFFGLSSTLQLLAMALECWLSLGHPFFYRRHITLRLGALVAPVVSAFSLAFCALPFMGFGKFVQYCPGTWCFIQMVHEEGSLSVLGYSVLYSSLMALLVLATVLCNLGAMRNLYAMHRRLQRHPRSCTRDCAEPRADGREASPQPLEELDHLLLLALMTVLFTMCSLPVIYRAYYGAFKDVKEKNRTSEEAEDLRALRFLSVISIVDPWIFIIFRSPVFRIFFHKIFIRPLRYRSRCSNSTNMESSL
Test: Binding activity to PGD2 receptor ([3H]PGD2, human platelet membrane fraction)
Details: human platelet membrane fraction; read-out: Binding activity to PGD2 receptor in human platelet membrane fraction IC50
Experimental: Experiment 1 Binding Activity to PGD2 Receptor (1) Preparation of Human Platelet Membrane Fraction […] To a binding-reaction solution (50 mM Tris/HCl, pH 7.4, 5 mM MgCl2) (0.2 ml) were added the human platelet membrane fraction (0.1 mg) and 5 nM [^3H]PGD2 (115 Ci/mmol), and the mixture was reacted at 4° C. for 90 min. […] The specific-binding ratio was calculated by subtracting the non-specific binding ratio which is the radioactivity similarly measured in the presence of 10 μM PGD2 from the total binding. […]
Could you please report measured pIC50 for the items listed next?
Answers are plain numbers, as −log10 of the molar value.

Some compounds with known pIC50 results, for comparison:
>>> readout_number("CC1(C)[C@H]2C[C@H](C/C=C\\CCCC(=O)O)[C@@H](NC(=O)c3ccc(Sc4cccs4)s3)[C@@H]1C2 [II-59]")
10.00
>>> readout_number("Cc1cc(S(=O)(=O)c2ccc(C(=O)N[C@@H]3[C@@H](C/C=C\\CCCC(=O)O)C[C@H]4C[C@@H]3C4(C)C)s2)cs1 [II-101]")
7.14
>>> readout_number("O=C(O)CCC/C=C\\C[C@H]1[C@@H]2CC[C@@H](C2)[C@@H]1NC(=O)c1ccc(CSc2cccs2)s1 [I-104]")
10.00
>>> readout_number("O=C(O)CCC/C=C\\C[C@H]1[C@@H]2CC[C@@H](C2)[C@@H]1NC(=O)c1ccc(Sc2ccsc2)s1 [I-79]")
9.38
>>> readout_number("Cc1cccc(Cc2ccc(C(=O)N[C@H]3[C@H]4CC[C@H](C4)[C@@H]3C/C=C\\CCCC(=O)O)s2)c1 [I-131]")
7.36
>>> readout_number("Cc1cccn1S(=O)(=O)c1ccc(C(=O)N[C@@H]2[C@@H](CCCC/C=C/C(=O)O)C[C@H]3C[C@@H]2C3(C)C)s1 [II-7I-55a]")
8.74

Report pIC50 for every entry below.
1. O=C(O)CCC/C=C\C[C@H]1[C@@H]2CC[C@@H](C2)[C@@H]1NC(=O)c1ccn(S(=O)(=O)c2cccs2)c1 [I-94]
2. Cc1ccc(Cc2ccc(C(=O)N[C@H]3[C@H]4CC[C@H](C4)[C@@H]3C/C=C\CCCC(=O)O)s2)s1 [I-129]
3. O=C(O)CCC/C=C\C[C@H]1[C@@H]2CC[C@@H](C2)[C@@H]1NC(=O)c1ccc(Cc2ccc(OCc3ccccc3)c(O)c2)s1 [I-146]
4. CC1(C)[C@H]2C[C@H](C/C=C\CCCC(=O)O)[C@@H](NC(=O)c3ccc(S(=O)(=O)c4ccccc4)s3)[C@@H]1C2 [II-37]
5. CC1(C)[C@H]2C[C@H](C/C=C\CCCC(=O)O)[C@@H](NC(=O)c3ccc(S(=O)(=O)n4cccc4)s3)[C@@H]1C2 [II-1]
6. O=C(O)CCC/C=C\C[C@H]1[C@@H]2CC[C@@H](C2)[C@@H]1NC(=O)c1cc(Cc2cccs2)cs1 [I-88]

A.
1. 9.00
2. 7.96
3. 7.36
4. 7.59
5. 8.70
6. 8.12

Report pIC50 for every entry below.
1. Cc1ccc(Cc2ccc(C(=O)N[C@H]3[C@H]4CC[C@H](C4)[C@@H]3C/C=C\CCCC(=O)O)s2)c(C)c1 [I-128]
2. O=C(O)CCC/C=C\C[C@H]1[C@@H]2CC[C@@H](C2)[C@@H]1NC(=O)c1ccc(Cc2ccccc2)s1 [I-31]

A.
1: 7.70; 2: 8.09
